Record: compiled pKi on C-C chemokine receptor type 3 (Homo sapiens) from multiple reports.
pKi: −log10 of the molar value.

Solved cases below.
{"smiles.input": "Cc1nnsc1C(=O)N1CCN(S(=O)(=O)c2cc(C#N)ccc2Sc2cc(Cl)cc(Cl)c2)CC1", "assay.target": "C-C chemokine receptor type 3 (Homo sapiens)", "pKi": "≥ 7.30"}
{"smiles.input": "N=c1c2ccccc2nc2n1CCC2=Cc1ccccc1Br", "assay.target": "C-C chemokine receptor type 3 (Homo sapiens)", "pKi": "7.00 to 9.00"}
{"smiles.input": "Fc1ccc(SCCCN2CCC(n3c(C(F)(F)C(F)(F)F)nc4cc(F)ccc43)CC2)cc1", "assay.target": "C-C chemokine receptor type 3 (Homo sapiens)", "pKi": 6.96}
{"smiles.input": "Cc1ccc(C(=O)N2CCN(S(=O)(=O)c3cc(C#N)ccc3Sc3cc(C)cc(C)c3)CC2)cc1", "assay.target": "C-C chemokine receptor type 3 (Homo sapiens)", "pKi": "6.30 to 7.30"}
{"smiles.input": "CCN(C)S(=O)(=O)c1cccc(NC(=O)[C@H]2CCC(=O)N2C2CCN(Cc3ccc(Cl)c(C)c3)CC2)c1", "assay.target": "C-C chemokine receptor type 3 (Homo sapiens)", "pKi": 8.05}

Look at each compound and report its pKi.
1. Cc1cc(C(=O)N2CCC2)cc(NC(=O)[C@H]2CCC(=O)N2C2CCN(Cc3ccc(Cl)c(C)c3)CC2)n1
2. FC(F)(F)Oc1ccccc1C=C1CCN2Cc3ccccc3N=C12
3. N#Cc1ccc(Sc2cc(Cl)cc(Cl)c2)c(S(=O)(=O)N2CCCCC2)c1

Completion:
8.17
5.00 to 6.00
6.30 to 7.30

* * *

pKi: −log10 of the molar value.
A compilation of pKi values for C-C chemokine receptor type 3 (Homo sapiens) from the published literature.

A selection of reference data follows.
{"smiles.input": "CN1C[C@H](C(=O)Nc2cc(C3CC3)nn2C)N(C2CCN(Cc3ccc(Cl)c(Cl)c3)CC2)C1=O", "assay.target": "C-C chemokine receptor type 3 (Homo sapiens)", "pKi": 7.17}
{"smiles.input": "Cc1nnc(NC(=O)c2cccc(NC(=O)[C@H]3CCC(=O)N3C3CCN(Cc4ccc(Cl)c(C)c4)CC3)c2)s1", "assay.target": "C-C chemokine receptor type 3 (Homo sapiens)", "pKi": 7.85}
{"smiles.input": "N#Cc1ccc(Oc2cc(Cl)cc(Cl)c2)c(S(=O)(=O)N2CCN(C(=S)Nc3ccccc3)CC2)c1", "assay.target": "C-C chemokine receptor type 3 (Homo sapiens)", "pKi": "≥ 7.30"}
{"smiles.input": "Cc1cc(C)cc(Oc2ccc(C#N)cc2S(=O)(=O)N2CCN(S(=O)(=O)CC(C)C)CC2)c1", "assay.target": "C-C chemokine receptor type 3 (Homo sapiens)", "pKi": "< 5.30"}
{"smiles.input": "N#Cc1ccc(Oc2cc(Cl)cc(Cl)c2)c(S(=O)(=O)N2CCN(C(=O)c3ccco3)CC2)c1", "assay.target": "C-C chemokine receptor type 3 (Homo sapiens)", "pKi": "< 5.30"}

For every item in the list below, what is its measured pKi?
1. Cc1cc(C)cc(Oc2ccc(C#N)cc2S(=O)(=O)N2CCN(C(=O)C(C)C)CC2)c1
2. Cc1cc(C(=O)N(C)C)cc(NC(=O)[C@H]2CCC(=O)N2C2CCN(Cc3ccc(F)c(C)c3)CC2)n1
3. Cc1cc(CN2CCC(N3C(=O)CC[C@@H]3C(=O)Nc3cccc(-c4nnnn4C)c3)CC2)ccc1Cl
4. Cc1ccc(C(=O)N2CCN(S(=O)(=O)c3cc(C#N)ccc3Oc3cc(C)cc(C)c3)CC2)cc1
5. N#Cc1ccc(Oc2cc(Cl)cc(Cl)c2)c(S(=O)(=O)N2CCN(C(N)=O)CC2)c1
6. Cc1nnsc1C(=O)N1CCN(S(=O)(=O)c2cc(C#N)ccc2Oc2cc(Cl)cc(Cl)c2)CC1

Completion:
["< 5.30", 7.15, 8.40, "5.30 to 6.30", "≥ 7.30", "≥ 7.30"]

* * *

Header: Ki / C-C chemokine receptor type 3 (Homo sapiens) / multiple publications

{"smiles.input": "Cc1cc(C)cc(Oc2ccc(C#N)cc2S(=O)(=O)N2CCN(C(=O)C3CCCC3)CC2)c1", "Ki": "> 5000 nM"}
{"smiles.input": "CNC(=O)c1cccc(NC(=O)[C@H]2CCC(=O)N2C2CCN(Cc3ccc(F)c(Cl)c3)CC2)c1", "Ki": "237 nM"}

Here is another compound to look at.
Prompt: Which Ki is listed for "COc1cc2nc3n(c(=N)c2cc1OC)CC/C3=C\c1ccccc1Br" ?
Completion: 100 to 1000 nM

* * *

Multiple publications report pKi for C-C chemokine receptor type 3 (Homo sapiens, UniProt P51677); what follows is a combined list.
pKi: −log10 of the molar value.

The examples below pair each entry with its known result.
{"smiles.input": "Cc1ccc(S(=O)(=O)N2CCN(S(=O)(=O)c3cc(C#N)ccc3Oc3cc(C)cc(C)c3)CC2)cc1", "pKi": "< 5.30"}
{"smiles.input": "CC(=O)N1CCC(NS(=O)(=O)c2cc(C#N)ccc2Oc2cc(Cl)cc(Cl)c2)CC1", "pKi": "6.30 to 7.30"}
{"smiles.input": "Cc1ccc(NC(=O)N2CCN(S(=O)(=O)c3cc(C#N)ccc3Oc3cc(C)cc(C)c3)CC2)cc1", "pKi": "< 5.30"}
{"smiles.input": "CCc1ccccc1/C=C1\\CCn2c1nc1ccccc1c2=N", "pKi": "6.00 to 7.00"}
{"smiles.input": "Cc1ccc(S(=O)(=O)N2CCC(NS(=O)(=O)c3cc(C#N)ccc3Oc3cc(Cl)cc(Cl)c3)CC2)cc1", "pKi": "6.30 to 7.30"}

Please report pKi for every entry that follows.
1. CN(C)S(=O)(=O)N1CCN(S(=O)(=O)c2cc([N+](=O)[O-])ccc2Sc2cc(Cl)ccc2Cl)CC1
2. N#Cc1ccc(Oc2cc(Cl)cc(Cl)c2)c(S(=O)(=O)N2CCN(C(=O)C3CCCC3)CC2)c1
3. Clc1ccccc1C=C1CCN2Cc3ccccc3N=C12

Completion:
1: < 5.30; 2: < 5.30; 3: 7.00 to 9.00

* * *

Literature roundup of C-C chemokine receptor type 3 (Homo sapiens, UniProt P51677) data, read-out Ki.

Worked examples follow.
{"smiles.input": "C=CCNC(=O)N1CCN(S(=O)(=O)c2cc([N+](=O)[O-])ccc2Sc2cc(Cl)ccc2Cl)CC1", "Ki": "≤ 50 nM"}
{"smiles.input": "CCOC(=O)c1sc(NC(=O)[C@H]2CCC(=O)N2C2CCN(Cc3ccc(Cl)c(C)c3)CC2)nc1C", "Ki": "7 nM"}
{"smiles.input": "CNC(=O)c1cc(NC(=O)[C@H]2CCC(=O)N2C2CCN(Cc3ccc(Cl)c(C)c3)CC2)ccc1OC", "Ki": "16 nM"}
{"smiles.input": "N#Cc1ccc(Oc2cc(Cl)cc(Cl)c2)c(S(=O)(=O)N2CCN(C(=O)c3cnccn3)CC2)c1", "Ki": "50 to 500 nM"}
{"smiles.input": "Cc1cc(NC(=O)[C@H]2CCC(=O)N2C2CCN(Cc3ccc(Cl)c(C)c3)CC2)cc(-c2nnnn2C)c1", "Ki": "4 nM"}
{"smiles.input": "Cc1cc(CN2CCC(N3C(=O)CC[C@@H]3C(=O)N3Cc4ccccc4C3)CC2)ccc1Cl", "Ki": "518 nM"}
{"smiles.input": "CN(C)c1ccc(/C=C2\\CCN3Cc4ccccc4N=C23)cc1", "Ki": "1000 to 10000 nM"}
{"smiles.input": "Cc1cc(C)cc(Oc2ccc(C#N)cc2S(=O)(=O)N2CCN(C(=O)c3ccc(C(F)(F)F)cc3)CC2)c1", "Ki": "> 5000 nM"}
{"smiles.input": "Cc1cc(C)cc(Sc2ccc(C#N)cc2S(=O)(=O)N2CCN(C(=O)c3cccc(C)c3)CC2)c1", "Ki": "50 to 500 nM"}
{"smiles.input": "O=C(c1ccco1)N1CCN(S(=O)(=O)c2cc([N+](=O)[O-])ccc2Oc2cc(Cl)ccc2Cl)CC1", "Ki": "> 5000 nM"}

I'm hoping you can list Ki for every compound here, please.
1. N#Cc1ccc(Oc2cc(Cl)cc(Cl)c2)c(S(=O)(=O)N2CCN(C(=O)CCCCl)CC2)c1
2. CNC(=O)c1cc(NC(=O)[C@H]2CCC(=O)N2C2CCN(Cc3ccc(Cl)c(C)c3)CC2)cc(C(=O)N(C)C)c1
3. CC(=O)N1CCN(S(=O)(=O)c2cc(C#N)ccc2Oc2cc(C)cc(C)c2)CC1
4. Cc1ccc(C)c(Sc2ccc([N+](=O)[O-])cc2S(=O)(=O)N2CCN(C(=O)c3ccccc3)CC2)c1
5. Cc1cc(-c2nc[nH]n2)cc(NC(=O)[C@H]2CCC(=O)N2C2CCN(Cc3ccc(Cl)c(C)c3)CC2)n1
6. Cc1cc(C)cc(Oc2ccc(C#N)cc2S(=O)(=O)N2CCN(S(C)(=O)=O)CC2)c1

Completion:
1. ≤ 50 nM
2. 3 nM
3. > 5000 nM
4. > 5000 nM
5. 13 nM
6. > 5000 nM
